Listed below: mortality values for each entry.
Assay: Acute toxicity (mortality, LD50) in mice
Type: in vivo
Conditions: in vivo, ip; mouse, intraperitoneal, 200 mg/kg; read-out: mortalité
Parameter: mortality (%)

{"Compound": "CC(=C1C(=O)c2ccccc2C1=O)N(C)C [COR3788]", "Value": 100}
{"Compound": "CC(NC(C)(C)C)=C1C(=O)c2ccccc2C1=O [COR4001]", "Value": 100}
{"Compound": "CNC(C)=C1C(=O)c2ccc([N+](=O)[O-])cc2C1=O [COR4002]", "Value": 100}

* * *

Listed below: change in vivo at 20 mg/kg values for each entry.
Test system: rat Wistar soumis à une surcharge saline
Assay: Diuretic activity in selected Wistar rats given a saline overload (modified Wiebelhaus test)
Format: in vivo
Conditions: read-out: augmentation de l'excrétion urinaire du sodium

{"Compound": "CC(C)NC(=C1C(=O)c2ccccc2C1=O)C(C)C", "Output Unit": "%", "change in vivo at 20 mg/kg": 26}
{"Compound": "CC(NCC1CC1)=C1C(=O)c2ccccc2C1=O", "Output Unit": "%", "change in vivo at 20 mg/kg": 43}
{"Compound": "COCCNC(C)=C1C(=O)c2ccccc2C1=O", "Output Unit": "%", "change in vivo at 20 mg/kg": 42}
{"Compound": "CCC(NC(C)C)=C1C(=O)c2ccccc2C1=O", "Output Unit": "%", "change in vivo at 20 mg/kg": 99}
{"Compound": "CC(N)=C1C(=O)c2ccccc2C1=O", "Output Unit": "%", "change in vivo at 20 mg/kg": 40}
{"Compound": "CCCCNC(C)=C1C(=O)c2ccccc2C1=O", "Output Unit": "%", "change in vivo at 20 mg/kg": 59}
{"Compound": "CCC(NC)=C1C(=O)c2ccccc2C1=O", "Output Unit": "%", "change in vivo at 20 mg/kg": 56}
{"Compound": "CC(NC(C)C)=C1C(=O)c2cc(Cl)c(Cl)cc2C1=O", "Output Unit": "%", "change in vivo at 20 mg/kg": 43}
{"Compound": "CC(NC1CCCC1)=C1C(=O)c2ccccc2C1=O", "Output Unit": "%", "change in vivo at 20 mg/kg": 33}
{"Compound": "NS(=O)(=O)c1cc(C(=O)O)c(NCc2ccco2)cc1Cl [furosémide, reference compound]", "Output Unit": "%", "change in vivo at 20 mg/kg": 53}

Data provenance is patent EP0171342A1.
